Reference source: patent US4293489A

- Test system: Candida albicans A-26
- Assay notes: Agar plate disc diffusion test, MIC per disc
- Assay type: cell-based
- Reported conditions: 0.1M sodium borate, pH 7.5, 24 hours, 30° C.
Starred links: 1 amine or outer side, 2 acyl side, 3 side chain; linkers in the order of their positions; H or OH if unused. Positions of bridges follow the written chain, without caps; N, C: chain ends. Non-standard residues stand in square brackets, D forms with d. Residues, ends and D or L forms follow the SMILES beside them. *: point of attachment. Orn(4R-OH,5R-OH) = O=C([C@H](C[C@@H](O)[C@@H](O)N[*:3])N[*:1])[*:2]; hTyr(3S-OH,4S-OH) = N[C@H](C(=O)O)[C@H](O)[C@@H](O)c1ccc(O)cc1; Pro(3S-OH,4S-Me) = C[C@H]1CN[C@H](C(=O)O)[C@H]1O; X10 = CCCCCCCCCCCCOc1cccc(C(=O)*)c1; X25 = CCCCCCCCCCOc1ccc(OCC(=O)*)cc1; Hyp = O=C(O)[C@@H]1C[C@@H](O)CN1; X6 = CCCCCCCCCCSc1ccc(C(=O)*)cc1
// reported MIC per item
Expressed in μg/disc, but write only the number.

**Q:** Please report the recorded MIC for CCCCCCCCCCCCOc1cccc(C(=O)N[C@H]2C[C@@H](O)[C@@H](O)NC(=O)[C@@H]3[C@@H](O)[C@@H](C)CN3C(=O)[C@H]([C@@H](C)O)NC(=O)[C@H]([C@H](O)[C@@H](O)c3ccc(O)cc3)NC(=O)[C@@H]3C[C@@H](O)CN3C(=O)[C@H]([C@@H](C)O)NC2=O)c1 [drawing 129] (X10-[Orn(4R-OH,5R-OH)]T[Hyp][hTyr(3S-OH,4S-OH)]T[Pro(3S-OH,4S-Me)]; lactam 1-C) .
**A:** 2.5

**Q:** Please report the recorded MIC for CCCCCCCCCCSc1ccc(C(=O)N[C@H]2C[C@@H](O)[C@@H](O)NC(=O)[C@@H]3[C@@H](O)[C@@H](C)CN3C(=O)[C@H]([C@@H](C)O)NC(=O)[C@H]([C@H](O)[C@@H](O)c3ccc(O)cc3)NC(=O)[C@@H]3C[C@@H](O)CN3C(=O)[C@H]([C@@H](C)O)NC2=O)cc1 [drawing 120] (X6-[Orn(4R-OH,5R-OH)]T[Hyp][hTyr(3S-OH,4S-OH)]T[Pro(3S-OH,4S-Me)]; lactam 1-C) .
**A:** 0.156

**Q:** Please report the recorded MIC for CCCCCCCCCCOc1ccc(OCC(=O)N[C@H]2C[C@@H](O)[C@@H](O)NC(=O)[C@@H]3[C@@H](O)[C@@H](C)CN3C(=O)[C@H]([C@@H](C)O)NC(=O)[C@H]([C@H](O)[C@@H](O)c3ccc(O)cc3)NC(=O)[C@@H]3C[C@@H](O)CN3C(=O)[C@H]([C@@H](C)O)NC2=O)cc1 (X25-[Orn(4R-OH,5R-OH)]T[Hyp][hTyr(3S-OH,4S-OH)]T[Pro(3S-OH,4S-Me)]; lactam 1-C) .
**A:** 0.156

###

- System: Trychophyton mentagrophyes #6
- Assay notes: Agar plate disc diffusion test, MIC per disc
- Type: cell-based, Trichophyton mentagrophytes
- Reported conditions: 0.1M sodium borate, pH 7.5, 24 hours, 30° C., * measurable zones with regrowth of organism around disc
Starred links: 1 amine or outer side, 2 acyl side, 3 side chain; linkers in the order of their positions; H or OH if unused. Positions of bridges follow the written chain, without caps; N, C: chain ends. Non-standard residues stand in square brackets, D forms with d. Residues, ends and D or L forms follow the SMILES beside them. *: point of attachment. Orn(4R-OH,5R-OH) = O=C([C@H](C[C@@H](O)[C@@H](O)N[*:3])N[*:1])[*:2]; hTyr(3S-OH,4S-OH) = N[C@H](C(=O)O)[C@H](O)[C@@H](O)c1ccc(O)cc1; Pro(3S-OH,4S-Me) = C[C@H]1CN[C@H](C(=O)O)[C@H]1O; Benzoyl(4-octyloxy) = CCCCCCCCOc1ccc(C(=O)*)cc1; X10 = CCCCCCCCCCCCOc1cccc(C(=O)*)c1; X25 = CCCCCCCCCCOc1ccc(OCC(=O)*)cc1; Hyp = O=C(O)[C@@H]1C[C@@H](O)CN1
Outcome measure: MIC

[[record]]
compound = "CCCCCCCCCCCCOc1cccc(C(=O)N[C@H]2C[C@@H](O)[C@@H](O)NC(=O)[C@@H]3[C@@H](O)[C@@H](C)CN3C(=O)[C@H]([C@@H](C)O)NC(=O)[C@H]([C@H](O)[C@@H](O)c3ccc(O)cc3)NC(=O)[C@@H]3C[C@@H](O)CN3C(=O)[C@H]([C@@H](C)O)NC2=O)c1 [drawing 129] (X10-[Orn(4R-OH,5R-OH)]T[Hyp][hTyr(3S-OH,4S-OH)]T[Pro(3S-OH,4S-Me)]; lactam 1-C)"
target_under_test = "Trychophyton mentagrophyes #6"
reported_result = "> 40 μg/disc"

[[record]]
compound = "CCCCCCCCCCOc1ccc(OCC(=O)N[C@H]2C[C@@H](O)[C@@H](O)NC(=O)[C@@H]3[C@@H](O)[C@@H](C)CN3C(=O)[C@H]([C@@H](C)O)NC(=O)[C@H]([C@H](O)[C@@H](O)c3ccc(O)cc3)NC(=O)[C@@H]3C[C@@H](O)CN3C(=O)[C@H]([C@@H](C)O)NC2=O)cc1 (X25-[Orn(4R-OH,5R-OH)]T[Hyp][hTyr(3S-OH,4S-OH)]T[Pro(3S-OH,4S-Me)]; lactam 1-C)"
target_under_test = "Trychophyton mentagrophyes #6"
reported_result = "< 0.156 μg/disc"


Now, please, on to the next compound.
**Q:** Please report the recorded MIC for CCCCCCCCOc1ccc(C(=O)N[C@H]2C[C@@H](O)[C@@H](O)NC(=O)[C@@H]3[C@@H](O)[C@@H](C)CN3C(=O)[C@H]([C@@H](C)O)NC(=O)[C@H]([C@H](O)[C@@H](O)c3ccc(O)cc3)NC(=O)[C@@H]3C[C@@H](O)CN3C(=O)[C@H]([C@@H](C)O)NC2=O)cc1 [drawing 115] ({Benzoyl(4-octyloxy)}-[Orn(4R-OH,5R-OH)]T[Hyp][hTyr(3S-OH,4S-OH)]T[Pro(3S-OH,4S-Me)]; lactam 1-C) .
**A:** < 0.039 μg/disc
